System: Mus musculus
Assay: Percent increase in median life span of BDF1 mice with P-388 leukemia at dose 25 mg/kg administered intraperitoneally
Format: functional
Settings: BDF1, P388, ip, route intraperitoneal
Here, each record is paired with measured ILS at 25 mg/kg data.
endpoint_label: ILS at 25 mg/kg

- Cl.Cl.N/C(=N\N=C\c1c2ccccc2c(/C=N/N/C(N)=N/CCO)c2ccccc12)NCCO: 90%
- Cl.Cl.Cl.Cl.N=C(NCc1cccnc1)N/N=C/c1c2ccccc2c(/C=N/NC(=N)NCc2cccnc2)c2ccccc12: 114%
- C(=N\NC1=NCCCCC1)/c1c2ccccc2c(/C=N/NC2=NCCCCC2)c2ccccc12.Cl.Cl: 95%
